# assay.details: Extended single-dose toxicity study including safety pharmacology endpoints, i.v. bolus (GLP)
# Type: in vivo, beagle dogs
# test.parameters: beagle, dog, plasma, iv, 400 ug/kg; Female; 400 μg/kg single i.v. bolus; mean n = 3; read-out: C5 min
# Description: The following parameters and endpoints were evaluated: mortality, clinical observations, body weights, food consumption, body temperature, local reactions, ophthalmology, clinical pathology parameters (hematology, coagulation, clinical chemistry, and urinalysis), cardiovascular and respiratory safety pharmacology endpoints along with FOB evaluation, organ weights, and macroscopic and microscopic examinations, and TK parameters. […]
property: level at 5 min (ng/mL)
Quick note: give the figure in ng/mL, leave out the unit.

## Input Provide only the value of recorded level at 5 min for `CC(C)C[C@@H]1NC(=O)[C@H](Cc2cccc(NC(=O)CCCS(N)(=O)=O)c2)NC(=O)[C@H](CC(=O)O)NC(=O)[C@H]2CCCN2C(=O)[C@H](CCC(=O)O)NC(=O)[C@@H](NC(=O)[C@H](CCC(N)=O)NC(=O)CN2CCN(C(=O)CN3CCN(CC(=O)O)CCN(CC(=O)O)CCN(CC(=O)O)CC3)CC2)CSCc2cccc(c2)CSC[C@@H](C(N)=O)NC(=O)[C@H](CO)NC(=O)[C@H](Cc2c[nH]c3ccccc23)NC(=O)[C@H]([C@@H](C)O)NC1=O`
## Output 1760

----------
# target.or.test.system: CAIX-expressing human HT-29 colorectal cancer cells (Homo sapiens, UniProt Q16790)
# Construct: CAIX-expressing human HT-29 colorectal cancer cells; host or cells: HT-29 human colorectal cancer cells
# assay.details: FACS binding assay (IC50 determination, competition with tracer 3BP-2776 or 3BP-4149)
# test.parameters: FACS binding assay, HT-29 cells, competition with tracer 3BP-4149 (3 nM, Cy5-labeled), 4° C., 1 hour; read-out: pIC50 category (activity) (converted)
Starred links: 1 amine or outer side, 2 acyl side, 3 side chain; linkers in the order of their positions; H or OH if unused. Positions of bridges follow the written chain, without caps; N, C: chain ends. Non-standard residues stand in square brackets, D forms with d. Residues, ends and D or L forms follow the SMILES beside them. *: point of attachment. DOTA = O=C(O)CN1CCN(CC(=O)O)CCN(CC(=O)*)CCN(CC(=O)O)CC1; mXylylene = c1cc(C[*:1])cc(C[*:2])c1; X1 = O=C(CN1CCN([*:1])CC1)[*:2]; Dap = NC[C@H](N)C(=O)O; GABA = NCCCC(=O)O
Below, each entry is listed alongside its reported IC50.

CC(C)C[C@@H]1NC(=O)[C@H](Cc2c[nH]c3ccccc23)NC(=O)[C@H](CC(=O)O)NC(=O)[C@H]2CCCN2C(=O)[C@H](CCC(=O)O)NC(=O)[C@@H]2CSCc3cccc(c3)CSC[C@@H](C(N)=O)NC(=O)[C@H](CNC(=O)C[C@H](NC(=O)CCCNC(=O)CN3CCN(CC(=O)O)CCN(CC(=O)O)CCN(CC(=O)O)CC3)C(=O)N2)NC(=O)[C@H](Cc2c[nH]c3ccccc23)NC(=O)[C@H]([C@@H](C)O)NC1=O [3BP-4263] ({DOTA-GABA}-DCE[dP]DWLTW[Dap]C-NH2; lactam 1-10; linker 2-11 via mXylylene) : < 10 nM

Could you now look at the following compound, please?
## Input Provide only the value of recorded IC50 for CC(C)C[C@@H]1NC(=O)[C@H](Cc2c[nH]c3ccccc23)NC(=O)[C@H](CC(=O)O)NC(=O)[C@H]2CCCN2C(=O)[C@H](CCC(=O)O)NC(=O)[C@@H](NC(=O)[C@H](Cc2ccc(O)cc2)NC(=O)CN2CCN(C(=O)CN3CCN(CC(=O)O)CCN(CC(=O)O)CCN(CC(=O)O)CC3)CC2)CSCc2cccc(c2)CSC[C@@H](C(N)=O)NC(=O)[C@H](CO)NC(=O)[C@H](Cc2c[nH]c3ccccc23)NC(=O)[C@H]([C@@H](C)O)NC1=O [3BP-4446] ({DOTA}-[X1]YCE[dP]DWLTWSC-NH2; linker 3-12 via mXylylene)
## Output 10 to 79.4 nM
